Counter-ions that a name gives are not always drawn.
readout_name: melting point (°C)
Provide only the numeric value, understood in °C.

What value of measured melting point is listed for CN1CCC(OC(c2nc3ccccc3[nH]2)c2cc(Cc3ccccc3)ccc2O)CC1 (stereo not shown) [Example 596] ?
120

Similarly, CN1CCC(COC(c2cccc(Br)c2)c2nc3cc(F)ccc3[nH]2)C1 (stereo not shown) (as salt: oxalate) [Example 449] ?
70

Similarly, CN1CCC(OC(c2nc3ccccc3o2)c2cc(OC(F)(F)F)ccc2F)CC1 (stereo not shown) (as salt: oxalate) [Example 525] ?
103

Similarly, CN1CCC(OC(c2cccc(O)c2)c2nc3ccccc3s2)CC1 (stereo not shown) [Example 62] ?
201

Similarly, Cc1cccc(C(NC2CCN(C)CC2)c2nc3ccccc3[nH]2)c1 (stereo not shown) (as salt: oxalate) [Example 84] ?
132

Similarly, CCc1cccc(C(OC2CCN(C)CC2)c2nc3ccccc3s2)c1 (stereo not shown) (as salt: oxalate) [Example 152] ?
123

Similarly, CCN1CCC(OC(c2cccc(OCCN)c2)c2nc3ccccc3s2)CC1 (stereo not shown) (as salt: oxalate) [Example 290] ?
112

Similarly, Cc1cccc(C(OC2CCN(C)CC2)c2nc3ccccc3[nH]2)c1O (stereo not shown) [Example 586] ?
111

Similarly, COCCn1c(C(OC2CCN(C)CC2)c2cccc(C#CCCCCN)c2)nc2ccccc21 (stereo not shown) (as salt: oxalate) [Example 501] ?
109

Similarly, CN1CCC(OC(c2nc3ccccc3[nH]2)c2cc(F)c(F)cc2O)CC1 (stereo not shown) [Example 583] ?
198

Similarly, CN1CCC(OC(c2cccc(OCc3cccnc3)c2)c2nc3ccccc3s2)CC1 (stereo not shown) (as salt: oxalate) [Example 284] ?
102

Similarly, CN1CCC(OC(c2cccc(-c3ccc(C(F)(F)F)cc3)c2)c2nc3ccccc3[nH]2)CC1 (stereo not shown) [Example 119] ?
95

Similarly, CN1CCC(OC(c2nc3ccccc3[nH]2)c2ccc(F)c(F)c2O)CC1 (stereo not shown) [Example 625] ?
184

Similarly, Cc1ccccc1COc1cccc(C(NC2CCN(C)CC2)c2nc3ccccc3[nH]2)c1 (stereo not shown) (as salt: oxalate) [Example 129] ?
121

Similarly, CN1CCC(NC(c2cccc(OCc3ccccc3)c2)c2nc3ccccc3[nH]2)CC1 (stereo not shown) [Example 65] ?
78

Similarly, COc1ccc(COc2cccc(C(NC3CCN(C)CC3)c3nc4ccccc4[nH]3)c2)cc1 (stereo not shown) [Example 124] ?
84
